System: MCF7
Measurement Notes: HRG-induced Akt activation (dPAkt = log2 pAkt/Akt HRG-stimulated minus log2 pAkt/Akt basal) (log2 ratio difference); higher = stronger HRG-induced Akt(T308) phosphorylation
Details: miRNA mimic concentration 10 nM; time after transfection 72 h; heregulin 10 ng/ml; stimulation time 1 h
What HRG-induced Akt activation (log2) was measured for each of the following?
# answer = number (no unit)

Q: Which HRG-induced Akt activation (log2) is listed for CCCUGUGCCCGGCCCACUUCUG ?
Ans: 1.19

Q: Item: CUGCGCAAGCUACUGCCUUGCU
Ans: 1.07

Q: Item: GUGGGUACGGCCCAGUGGGGGG
Ans: 1.24

Q: Item: UAGCAGCGGGAACAGUUCUGCAG
Ans: 1.61

Q: Item: UGCCUACUGAGCUGAAACACAG
Ans: 1.55

Q: Item: ACGUUGGCUCUGGUGGUG
Ans: 1.17

Q: Item: UGUAGUGUUUCCUACUUUAUGGA
Ans: 1.77

Q: Item: ACGGAUGUUUGAGCAUGUGCUA
Ans: 2.15

Q: Item: UGAUUGUCCAAACGCAAUUCU
Ans: 1.82

Q: Item: UGAGGUAGUAGAUUGUAUAGUU
Ans: 1.22

Q: Item: UUCUCAAGGAGGUGUCGUUUAU
Ans: 0.993

Q: Item: UGAGCCCCUGUGCCGCCCCCAG
Ans: 2.14

Q: Item: ACAGUCUGCUGAGGUUGGAGC
Ans: 1.54

Q: Item: UGUCUGCCCGCAUGCCUGCCUCU
Ans: 2.32

Q: Item: AAACAAACAUGGUGCACUUCUU
Ans: 1.48

###

Test system: MCF7
Measurement Notes: HRG-induced Akt activation (dPAkt = log2 pAkt/Akt HRG-stimulated minus log2 pAkt/Akt basal) (log2 ratio difference); higher = stronger HRG-induced Akt(T308) phosphorylation
Details: miRNA mimic concentration 10 nM; time after transfection 72 h; heregulin 10 ng/ml; stimulation time 1 h
Endpoint Name: HRG-induced Akt activation (log2)
# answer = number (no unit)

Q: Which HRG-induced Akt activation (log2) is listed for ACCUUGCCUUGCUGCCCGGGCC ?
Ans: 1.06

Q: Item: UAGUGCAAUAUUGCUUAUAGGGU
Ans: 0.808

Q: Item: UGUCUUACUCCCUCAGGCACAU
Ans: 1.47

Q: Item: UCAUAGCCCUGUACAAUGCUGCU
Ans: 1.7

Q: Item: CACACACUGCAAUUACUUUUGC
Ans: 1.53

Q: Item: GCUGACUCCUAGUCCAGGGCUC
Ans: 1.53

Q: Item: CCAAUAUUGGCUGUGCUGCUCC
Ans: 1.32

Q: Item: AAAAACUGUAAUUACUUUU
Ans: 1.15

Q: Item: AAUGGCGCCACUAGGGUUGUG
Ans: 1.42

Q: Item: CUGCAAUGUAAGCACUUCUUAC
Ans: 0.874

Q: Item: UUCAAGUAAUUCAGGUG
Ans: 1.22

Q: Item: UAGUAGACCGUAUAGCGUACG
Ans: 1.5

Q: Item: UGAUAUGUUUGAUAUAUUAGGU
Ans: 1.52

Q: Item: UGAGGCAGUAGAUUGAAU
Ans: 1.49

Q: Item: ACUUUAACAUGGAGGCACUUGC
Ans: 1.41

Q: Item: CGUCUUACCCAGCAGUGUUUGG
Ans: 1.73

Q: Item: AGGACCUGCGGGACAAGAUUCUU
Ans: 1.6

Q: Item: AGGCAAGAUGCUGGCAUAGCU
Ans: 1.18

Q: Item: CCAGACAGAAUUCUAUGCACUUUC
Ans: 1.93

Q: Item: ACAGUAGUCUGCACAUUGGUUA
Ans: 1.69

Q: Item: AUCAUGAUGGGCUCCUCGGUGU
Ans: 1.41

Q: Item: GUCCAGUUUUCCCAGGAAUCCCU
Ans: 1.7

Q: Item: CUGGGAGGUGGAUGUUUACUUC
Ans: 0.961

Q: Item: GCUAUUUCACGACACCAGGGUU
Ans: 1.69

Q: Item: AGGCACCAGCCAGGCAUUGCUCAGC
Ans: 1.51

Q: Item: ACUGGCUAGGGAAAAUGAUUGGAU
Ans: 1.24

Q: Item: UGUGCGCAGGGAGACCUCUCCC
Ans: 0.835

Q: Item: AAUCAUGUGCAGUGCCAAUAUG
Ans: 1.51

Q: Item: CAAAGCGCUCCCCUUUAGAGGU
Ans: 1.02

Q: Item: AACGCACUUCCCUUUAGAGUGU
Ans: 1.23

Q: Item: AGCUACAUCUGGCUACUGGGU
Ans: 1.48

Q: Item: UCUCUGGGCCUGUGUCUUAGGC
Ans: 1.55

Q: Item: UGAAACAUACACGGGAAACCUC
Ans: 1.04

Q: Item: UGGCUCAGUUCAGCAGGAACAG
Ans: 0.611

Q: Item: AAAAGUAAUUGCGGUUUUUGCC
Ans: 1.53

Q: Item: UCCAGUGCCCUCCUCUCC
Ans: 1.13

Q: Item: UCCUUCUGCUCCGUCCCCCAG
Ans: 1.47

Q: Item: UUAAGACUUGCAGUGAUGUUU
Ans: 1.25

Q: Item: CUCUAGAGGGAAGCACUUUCUC
Ans: 1.85

Q: Item: CAGUGGUUUUACCCUAUGGUAG
Ans: 1.91

Q: Item: AGCCUGGAAGCUGGAGCCUGCAGU
Ans: 1.35

Q: Item: UGAGCCCUGUCCUCCCGCAG
Ans: 2.24

Q: Item: AAAGUAGCUGUACCAUUUGC
Ans: 1.44

Q: Item: UCACAAUGCUGACACUCAAACUGCUGAC
Ans: 1.45

Q: Item: GUGAAUUACCGAAGGGCCAUAA
Ans: 1.03

Q: Item: CAAUUUAGUGUGUGUGAUAUUU
Ans: 2

Q: Item: AAAGUGCAUCUUUUUAGAGGAU
Ans: 0.724

Q: Item: AAUCCUUUGUCCCUGGGUGAGA
Ans: 1.76

Q: Item: AGUCAUUGGAGGGUUUGAGCAG
Ans: 1.86

Q: Item: UGAUUGUAGCCUUUUGGAGUAGA
Ans: 1.96

Q: Item: ACUUUAACAUGGAAGUGCUUUC
Ans: 1.17

Q: Item: UAGCAGCACGUAAAUAUUGGCG
Ans: 2.03

Q: Item: UAGCAGCACAGAAAUAUUGGC
Ans: 1.42

Q: Item: UUCAUUCGGCUGUCCAGAUGUA
Ans: 1.48

Q: Item: CCAGUUACCGCUUCCGCUACCGC
Ans: 1.32

Q: Item: UCCUGUACUGAGCUGCCCCGAG
Ans: 1.79

Q: Item: CCACACCGUAUCUGACACUUU
Ans: 1.36

Q: Item: CGGGCGUGGUGGUGGGGG
Ans: 1.56

Q: Item: UUAAUGCUAAUCGUGAUAGGGGU
Ans: 0.789

Q: Item: GCCUGCUGGGGUGGAACCUGGU
Ans: 1.81

Q: Item: CCUCUGGGCCCUUCCUCCAG
Ans: 0.844

Q: Item: AACAUAGAGGAAAUUCCACGU
Ans: 1.17

Q: Item: CAUGGUUCUGUCAAGCACCGCG
Ans: 1.34

Q: Item: UCCUUCAUUCCACCGGAGUCUG
Ans: 1.66

Q: Item: AGGCACGGUGUCAGCAGGC
Ans: 1.2

###

Tested on: MCF7
Measurement Notes: HRG-induced Akt activation (dPAkt = log2 pAkt/Akt HRG-stimulated minus log2 pAkt/Akt basal) (log2 ratio difference); higher = stronger HRG-induced Akt(T308) phosphorylation
Details: miRNA mimic concentration 10 nM; time after transfection 72 h; heregulin 10 ng/ml; stimulation time 1 h
What HRG-induced Akt activation (log2) was measured for each of the following?
# answer = number (no unit)

Q: Which HRG-induced Akt activation (log2) is listed for AUCGUGCAUCCUUUUAGAGUGU ?
Ans: 1.47

Q: Item: UAGCUUAUCAGACUGAUGUUGA
Ans: 1.73

Q: Item: UGGACGGAGAACUGAUAAGGGU
Ans: 1.48

Q: Item: UUAUCAGAAUCUCCAGGGGUAC
Ans: 2.16

Q: Item: ACCAGGAGGCUGAGGCCCCU
Ans: 1.68

Q: Item: UGAGUACCGCCAUGUCUGUUGGG
Ans: 1.98

Q: Item: UCGUGUCUUGUGUUGCAGCCGG
Ans: 1.14

Q: Item: UGUCACUCGGCUCGGCCCACUAC
Ans: 1.17
